target: catalytic subunit of PKA, isoform alpha, residues 16-351 (PKAcα_(16-351)), preparation for ITC (mouse, UniProt P05132-1 16-351); assay: ITC; peptide or substrate (1.25 to 4.3 mM) titrated into the cell containing PKAc (149 to 204 μM); 4 °C; 50 mM Hepes (pH 7.4), 150 mM KCl, 5 mM MgCl2, 2 mM TCEP; 0.5 mM AMP-PNP in both solutions; conditions: both partners purified
// returns FALSE unless Kd is strictly below 100 µM, in which case TRUE

{"columns": ["binder", "class"],
 "data": [
  ["RGFLRSARLGRRASFHL (also called S1975R peptide; S1981 (S1975R); source: synthetic peptide) [CaV1.2 Ser1981 peptide S1975R]", "FALSE"],
  ["RGFARSASLGRRASFHL (also called L1971A peptide; S1981 (L1971A); source: synthetic peptide) [CaV1.2 Ser1981 peptide L1971A]", "TRUE"],
  ["RGFLRSASLGRRASAHL (human CaV1.2 residues 1968-1984 with F1982A (P+1 position); also called F1982A peptide; S1981 (F1982A); source: synthetic peptide) [CaV1.2 Ser1981 peptide F1982A]", "FALSE"],
  ["GAGRERDRRRGSTPW (Rad GTPase N-terminal tail, residues 14-28 around Ser25; also called Rad S25 peptide; source: synthetic peptide) [Rad Ser25 peptide]", "FALSE"],
  ["RGFLRSASLGRRASFHL (human CaV1.2 (α1c subunit) C-terminal tail, residues 1968-1984 around the PKA site Ser1981; also called S1981 peptide; CaV1.2 S1981 peptide; source: synthetic peptide) [CaV1.2 Ser1981 peptide]", "TRUE"],
  ["ARRQAGTRRRESLGK (Rad GTPase C-terminal tail, residues 261-275 around Ser272; also called Rad S272 peptide; S272 peptide; source: synthetic peptide) [Rad Ser272 peptide]", "FALSE"]
]}
